Where do the numbers come from? From patent US11001569B2.

Please go through the items and note down their IC50.
# System: JJN-3 (NIK translocated) multiple myeloma cells
# assay-text: Antiproliferative activity on JJN-3 multiple myeloma cells (CellTiter-Glo)
# Type: cell-based, human
# reported-conditions: Homo sapiens, JJN-3, 96 h, JJN-3 (NIK translocated) cells, 96 hr treatment, averaged values, read-out: JJN-3 Proliferation inhibition (IC50 (nM))
# Method: Determination of Antiproliferative Activity on JJN-3 (NIK Translocated) and KMS12-BM (NIK WT) Multiple Myeloma Cells All compounds tested were dissolved in DMSO and further dilutions were made in culture medium. […] Viability was assessed using CellTiter-Glo cell viability assay kit (Promega). […] Luminescence was measured on a HTS Topcount (Perkin Elmer). […] For each experiment, controls (containing no drug) and a blank incubation (containing cells read at the time of compound addition) were run in parallel. […]
Supply the numeric figure in nM, leaving out any unit text.

Q. Requested read-out: IC50. Entry: Cc1cc(Nc2nccc(-c3cc(C#N)c4c(c3)[C@@](C)(CO)CN4)n2)c(=O)n(CC2(C)COC2)c1 [Compound 29i]
A. 100

Q. Requested read-out: IC50. Entry: COCCOc1nc(C)ncc1Nc1nccc(-c2cc(C#N)c3c(c2)[C@@](C)(CO)CN3)n1 [Compound 136]
A. 2000

Q. Requested read-out: IC50. Entry: COc1nc(C)ncc1Nc1nccc(-c2cc(C#N)c3c(c2)[C@@](C)(CO)CN3)n1 [Compound 129]
A. 562

Q. Requested read-out: IC50. Entry: COc1ccncc1Nc1nccc(-c2cc(C#N)c3c(c2)[C@@](C)(CO)CN3)n1 [Compound 37]
A. 3470

Q. Requested read-out: IC50. Entry: COc1ncc(Cl)cc1Nc1nccc(-c2cc(C#N)c3c(c2)C(C)(COCCNC2CC2)CN3)n1 (stereo not drawn) [Compound 119]
A. 1290

Q. Requested read-out: IC50. Entry: COCCOc1nc(C2CCOCC2)ncc1Nc1nccc(-c2cc(C#N)c3c(c2)[C@@](C)(CO)CN3)n1 [Compound 141]
A. 741

Q. Requested read-out: IC50. Entry: Cc1cc(Nc2nccc(-c3cc(C#N)c4c(c3)[C@@](C)(CO)CN4)n2)c(=O)n(CCN2CC(F)C2)c1 [Compound 1i]
A. 347

Q. Requested read-out: IC50. Entry: COCCOc1nc(C2CC2)ccc1Nc1nccc(-c2cc(C#N)c3c(c2)[C@@](C)(CO)CN3)n1 [Compound 62]
A. 977

Q. Requested read-out: IC50. Entry: C[C@]1(CO)CNc2c(C#N)cc(-c3ccnc(Nc4cccnc4OC4CCOCC4)n3)cc21 [Compound 23]
A. 708

Q. Requested read-out: IC50. Entry: C[C@]1(CO)CNc2c(C#N)cc(-c3ccnc(Nc4cc(C#N)cnc4CCC4CC4)n3)cc21 [Compound 64]
A. 35

Q. Requested read-out: IC50. Entry: Cc1cc(Nc2nccc(-c3cc(C#N)c4c(c3)C(C)(C)CN4)n2)c(=O)n(CCN2CC(F)C2)c1 [Compound 27i]
A. 148

Q. Requested read-out: IC50. Entry: COCCCc1ncc(C#N)cc1Nc1nccc(-c2cc(C#N)c3c(c2)[C@@](C)(CO)CN3)n1 [Compound 65]
A. 263

Q. Requested read-out: IC50. Entry: C[C@]1(CO)CNc2c(C#N)cc(-c3ccnc(Nc4cccnc4O[C@H]4CCCOC4)n3)cc21 [Compound 26]
A. 794

Q. Requested read-out: IC50. Entry: Cc1cnc(/C=C/C(=O)N(C)C)c(Nc2nccc(-c3cc(C#N)c4c(c3)[C@@](C)(CO)CN4)n2)c1 [Compound 84]
A. 4680

Q. Requested read-out: IC50. Entry: CNC(=O)c1cnc(CCC2CC2)c(Nc2nccc(-c3cc(C#N)c4c(c3)[C@@](C)(CO)CN4)n2)c1 [Compound 87]
A. 427
